assay: yeast display, Sf9 membrane polyspecificity reagent, FACS + sequencing; frameworks hold sequencing errors

SEQ: QVQLVESGGGLVQAGGSLRLSCAASGRTFYRYAMGWYRQAPGKERELVARIRSGGSTNYADSVKGRFTISRDNAKNTVYLQMNSLKPEDTAVYYCAVDDAYPDRYDYWGQGTQVTVSS
polyreactivity (PSR sort gate): high polyreactivity
//
SEQ: QVQLVESGGGLVQAGGSLRLSSAASGSTFDYYAMGWYRQAPGKERELVDGITYSGGTTYYADSVKGRFTISRDNAKNTVYLQMNSLKPEDTAVYYCNAVYDRNFYYWGQGTQVTVSS
polyreactivity (PSR sort gate): high polyreactivity
//
SEQ: QVQLVESGGGLVQAGGSLRLSCAASGFISRKNAMGWYRQAPGKERELVAAISKSGGRTYYADSVKGRFTISRDNAKNTVYLQMNSLKPEDTAVYYCNRVPRDSWPYAWYDYWGQGTQVTVSS
polyreactivity (PSR sort gate): high polyreactivity

----------
assay: yeast display, Sf9 membrane polyspecificity reagent, FACS + sequencing; frameworks hold sequencing errors
QUANTITY_MEASURED: polyreactivity (PSR sort gate)

Examples with their reported polyreactivity (PSR sort gate) follow.
SEQ: QVQLVESWGGLVQAGGSLRLSCAASGRIFKTYAMGWYRQAPGNEREFFAAITSSGGSTYYADSVKGRFTISRDHAKNTVYLQKNSLNPEDTAVYYCNAGSLHRRYYYEGDYWGQGTQVTVSS
polyreactivity (PSR sort gate): high polyreactivity
--
SEQ: QVQLVESGGGLVQAGGSLRLSCAASGITFLWNARGWYRQAPGKERELVAVISIGGSTYYADSVKGRFTISRDNAKNTVYLQMNSLKPEDTAVYYCAATEGPAYDYEYWGQGTQVTVSS
polyreactivity (PSR sort gate): low polyreactivity
--
SEQ: QGQLVESGGGLGQAGGSLRLSCAASGSTFGDSAMVWYRQAPGKERELVAGISARGGRTYYADSVKGRFTISRDNAKNTVYLQMNSLKPEDTAVYDCNARTGYQDGSYGNDYWGQGTQVTVSS
polyreactivity (PSR sort gate): high polyreactivity
--
SEQ: QDQLVESGGGLVQAGGSLRLSCAASGSTFVKYAMGWYRQAAGTERELVASITKRGGSTYYADSVKGRFTISRDKAKNTVYLQMNSLKPEDTAVYYCNAARGLYNAPKYGSIGFDYWGQGTQVTESS
polyreactivity (PSR sort gate): high polyreactivity

Turning to the following sequence.
Input: Would you kindly share the measured polyreactivity (PSR sort gate) for "QVQLVESGGGLVQAGGSLRLSCAASGSIFVSYAMGWYRQAPGKERELVAAITVSGGSTYYADSVKGRFTISRDNAKNTVYLQMNSLKPEDTAVYYCAADSWDDWVVEFYYWGQGTQVTVSS" ?
Output: low polyreactivity

----------
experiment: yeast display, Sf9 membrane polyspecificity reagent, FACS + sequencing; frameworks hold sequencing errors
QUANTITY_MEASURED: polyreactivity (PSR sort gate)

SEQ: QVQLVESGGGLVQAGGSLRLSCAASGITFATNTMGWYRQAPGKERELVASINYRGGSTYYADSVKGRFTISRDNAKNTVYLQMNSLKPEDTAVYYCNADIYLEYDYWGQGTQVTVSS
polyreactivity (PSR sort gate): low polyreactivity
--
SEQ: QVQLVESGGGLVQAGGSLRLSCAASGRTFVYYAMGWYRQAPGKEREFVAAISRSGGRTSYADSVKGRFTISRDKAKNTVYLQMNSLKPEDTAVYYCAAKVRQWRQGSYSSQYDYWGQGTQVTVSS
polyreactivity (PSR sort gate): high polyreactivity
--
SEQ: QVQLVESGGGLVQAGGSLRLSCAASGFTFYRNAMGWSRKAPGKERELVAAISTSGGSTHYADSVKGRFTISRDNAKNTVYLQMNSLKPEDTAVYYCAKRRSIRDEFGYWGQGTQVTVSS
polyreactivity (PSR sort gate): high polyreactivity
--
SEQ: QVHLVESGGGLVQAGGILRLSCAASGRTFRRYAMGWYRQAPGKERELVAVISGGGTYYADSVKGRFTISRDNAKNTVYLQMNSLKPEDTAVYYCNARSYQSARVRGGYWGQGTQVTVSS
polyreactivity (PSR sort gate): high polyreactivity
--
SEQ: QVQLQESGGGLVQAGGSLRLSCAASGSISYPRTMGWYREAPGKEREFVAGIGVGGTTYYADSVKGRFTISRDNAKNTVYLQMNSLKPEDAAVYYCAVAAYYDKYYVYWGQGTQVTVSC
polyreactivity (PSR sort gate): low polyreactivity

# return polyreactivity (PSR sort gate) for each item in the list
1. QVQLVESGGGLFQAGGSLRLSCAASGSIFYINAMGWYRQAPGKERELVAAISQSDGSTYYADSVKGRFTISSDNAKNTVYLQLNSLKPEDTAVYYCAADAYVLFYGDWYEFDYWGQGTQVTVSS
2. QFQLVESGGGLVQAGGSLRLSCAASAGYALGGYRQAPGKERELVAVINYSGGSTYYADSVKGRFTISRDNAKNTVYLQMNSLKPEDTAVYYCAAVYRRRYYWGQGTQVTVSS
3. QVQLVESGGGLVQAGGSLPLSCAASGYTFDANAMGWYRQAPGKERELVASISSISDSTDYADSVKGRFTISRDNAKNTVYLQMNSLKPEDTAVYYCARSDVKPGRQERDYWGQGTQVTVSS
4. QVQVVESGGGLVQAGGSLGLSCAASGRTFGSNAMGWYRQAPGKERELVAAISSTVSTNYADSVKGRFTISSDNANNTVYLQMNSLKPEDTAVYFCNVTRHYSYVSEYDYWGQGTQVTVSS
5. QVQLVESGGGLVQAAGSLRLSFAASGGIFSYYVMGWYRQAPGKEREFVASITQRGRTYYADSVKGRFTISRDNAKNTVYLQMNSLKPEDTAVYYCAAGIYAFRRHREEYDYWGQGTQVTVSS
6. QVQLVESGGGLVQAGGSLRLSCASSGLTSYSAMGWYRQAPGKERELGAAIDGSDGNTYYADSVKGRFTISRDNAMNTVYLQMKSLKPEDTAVYYCNAETVRYWWSWENDYWGQGTQVTVSS

Output:
["high polyreactivity", "high polyreactivity", "low polyreactivity", "low polyreactivity", "high polyreactivity", "high polyreactivity"]

# credit: the nanobody polyreactivity screen of Harvey et al. (2022)
